biological target: ERBB4 (Homo sapiens); experiment: Kinase binding constant (Kd)
Sequence (Q15303 26-1308): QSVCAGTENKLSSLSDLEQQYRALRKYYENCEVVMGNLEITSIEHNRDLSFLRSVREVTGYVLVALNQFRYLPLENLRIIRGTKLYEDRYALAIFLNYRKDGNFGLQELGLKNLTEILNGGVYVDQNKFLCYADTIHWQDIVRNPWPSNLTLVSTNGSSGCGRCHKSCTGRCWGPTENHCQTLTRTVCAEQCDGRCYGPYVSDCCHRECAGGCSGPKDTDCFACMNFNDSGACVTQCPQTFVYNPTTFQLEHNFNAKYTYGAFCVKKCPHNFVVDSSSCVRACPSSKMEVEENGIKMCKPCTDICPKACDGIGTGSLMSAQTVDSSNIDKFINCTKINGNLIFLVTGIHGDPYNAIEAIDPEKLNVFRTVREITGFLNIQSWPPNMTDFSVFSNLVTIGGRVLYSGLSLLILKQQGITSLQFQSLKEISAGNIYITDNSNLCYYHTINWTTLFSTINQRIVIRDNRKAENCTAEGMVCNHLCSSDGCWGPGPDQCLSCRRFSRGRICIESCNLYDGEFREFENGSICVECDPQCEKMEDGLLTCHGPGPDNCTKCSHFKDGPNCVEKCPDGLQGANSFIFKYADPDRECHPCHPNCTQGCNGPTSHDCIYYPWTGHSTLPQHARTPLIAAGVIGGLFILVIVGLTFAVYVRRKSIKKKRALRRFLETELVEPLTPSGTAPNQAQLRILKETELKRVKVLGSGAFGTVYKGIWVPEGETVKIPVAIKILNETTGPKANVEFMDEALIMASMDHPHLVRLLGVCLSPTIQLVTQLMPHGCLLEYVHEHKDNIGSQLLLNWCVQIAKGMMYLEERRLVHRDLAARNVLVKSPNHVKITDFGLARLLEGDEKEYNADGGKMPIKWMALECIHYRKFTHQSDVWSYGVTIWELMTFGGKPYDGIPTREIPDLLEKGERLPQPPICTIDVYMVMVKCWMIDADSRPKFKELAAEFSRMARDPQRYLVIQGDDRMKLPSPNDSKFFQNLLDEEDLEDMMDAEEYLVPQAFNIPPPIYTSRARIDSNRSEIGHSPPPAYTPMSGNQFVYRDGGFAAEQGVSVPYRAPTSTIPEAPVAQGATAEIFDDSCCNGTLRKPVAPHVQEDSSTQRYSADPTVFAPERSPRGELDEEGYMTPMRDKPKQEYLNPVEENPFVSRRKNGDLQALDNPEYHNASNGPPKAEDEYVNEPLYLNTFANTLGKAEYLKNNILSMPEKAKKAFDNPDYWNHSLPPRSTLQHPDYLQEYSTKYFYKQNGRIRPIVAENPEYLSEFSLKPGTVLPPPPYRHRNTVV
OBSERVABLE: Kd (nM)

1) C=CC(=O)Nc1cc(Nc2nccc(-n3ccc4cccnc43)n2)c(OC)cc1N(C)CCN(C)C [Compound 1] | 11

====

assay: Brain and plasma exposure after single oral dose; format: in vivo, Sprague Dawley rats; details: Sprague Dawley, rat, brain, po, 30 mg/kg, Compound 1 30 mg/kg PO, 7 hr, mean n=3; read-out: Brain Tissue Concentration
OBSERVABLE: concentration at 7 h

1. C=CC(=O)Nc1cc(Nc2nccc(-n3ccc4cccnc43)n2)c(OC)cc1N(C)CCN(C)C | 6960 ng/g

====

Attribute: concentration at 2 h
experiment: Brain and plasma exposure after 5 hour intravenous infusion; type: in vivo, Sprague Dawley rats; conditions: male, Sprague Dawley, rat, plasma, intravenous, 3 mg/kg, 3 mg/kg IV infusion over 5 h, 2 h, mean n=6; Compound 2 as metabolite
OBSERVABLE: concentration at 2 h (ng/mL)

1) C=CC(=O)Nc1cc(Nc2nccc(-n3ccc4cccnc43)n2)c(OC)cc1N(C)CCN(C)C | 78.7
2) C=CC(=O)Nc1cc(Nc2nccc(-n3ccc4cccnc43)n2)c(OC)cc1N(C)CCNC | 7.06

All figures here come from patent US20240293405A1.
